- Test system: Klebsiella pneumoniae
- METHOD SUMMARY: Zone of inhibition of Klebsiella pneumoniae at compound concentration of 40 mg/mL
- Format: functional
Quick rule for you: Inhibition under 10 mm gets rule met, anything else gets rule not met.

Qu. I wonder whether "Nc1ccc(S(=O)(=O)Nc2ncccn2)cc1" has Inhibition below 10 mm. Can you tell?
Ans. rule not met

Qu. I wonder whether "Cc1cc(NS(=O)(=O)c2ccc(N)cc2)no1" has Inhibition below 10 mm. Can you tell?
Ans. rule met

Qu. I wonder whether "COc1ccc(Cl)cc1C(=O)NCN(c1ccccc1)c1ccccc1" has Inhibition below 10 mm. Can you tell?
Ans. rule met

###

- System: Salmonella enterica subsp. enterica serovar Typhi
- METHOD SUMMARY: Zone of inhibition of Salmonella typhae at compound concentration of 40 mg/mL
- Assay type: functional
PROPERTY NAME: Inhibition (mm)
Respond numerically; units are mm and should not be typed.

Qu. Return the recorded Inhibition value; entry: "Nc1ccc(S(=O)(=O)Nc2ncccn2)cc1"
Ans. 7
